target: UniProt P31645
Sequence (P31645 whole entry): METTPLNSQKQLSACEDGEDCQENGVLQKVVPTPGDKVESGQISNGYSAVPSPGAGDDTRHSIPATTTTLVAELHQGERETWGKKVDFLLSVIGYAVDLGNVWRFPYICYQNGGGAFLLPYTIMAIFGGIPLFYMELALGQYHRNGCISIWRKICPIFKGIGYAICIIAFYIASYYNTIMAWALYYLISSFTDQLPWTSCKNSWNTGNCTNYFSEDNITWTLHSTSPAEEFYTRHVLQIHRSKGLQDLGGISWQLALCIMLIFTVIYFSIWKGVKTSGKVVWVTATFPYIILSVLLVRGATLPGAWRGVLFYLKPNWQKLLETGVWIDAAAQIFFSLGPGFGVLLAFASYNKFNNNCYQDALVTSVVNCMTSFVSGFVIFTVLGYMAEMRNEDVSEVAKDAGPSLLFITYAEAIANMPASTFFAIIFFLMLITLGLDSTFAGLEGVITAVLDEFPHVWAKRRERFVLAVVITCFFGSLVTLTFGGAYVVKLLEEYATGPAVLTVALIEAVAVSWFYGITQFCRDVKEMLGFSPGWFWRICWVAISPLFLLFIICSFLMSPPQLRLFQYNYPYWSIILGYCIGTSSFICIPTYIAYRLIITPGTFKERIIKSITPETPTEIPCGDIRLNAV
quantity-name: Ki (nM)
Answers are plain numbers, in nM.

Please provide the recorded Ki for COc1ccc([C@@H]2CN(C)Cc3cc(OCCCN4CCC(F)CC4)ccc32)cc1 , tested on UniProt P31645. 2.7

* * *

assay: Plasma concentration in rat at 10 mg/kg, po after 6 hrs; assay type: ADME, organism-based; parameters: dose 10 mg/kg, route oral
Would you mind telling me the reported concentration at 6 h of each entry?
One number for each entry, in nM.

Okay, here is my list. What is concentration at 6 h for each of these?
1. CNCc1cc(C#CCCN2CCOCC2)ccc1Oc1ccc(F)cc1Cl
2. CNCc1cc(C#CCCN2CCSCC2)ccc1Oc1ccc(SC)cc1
3. CNCc1cc(C#CCCN2CCOCC2)ccc1Oc1cccc(F)c1
4. CNCc1cc(C#CCCN(C)C2CC2)ccc1Oc1ccc(SC)cc1

1: 8; 2: 250; 3: 48; 4: 12

Quick request: concentration at 6 h for each listed item, please.
1. CNCc1cc(C#CCCN2CCOCC2)ccc1Oc1ccc(Cl)cc1
2. CNCc1cc(C#CCCN2CCOCC2)ccc1Oc1ccc(C(F)(F)F)cc1
3. CNCc1cc(C#CCCN2CCOCC2)ccc1Oc1cccc(Cl)c1
4. CNCc1cc(C#CCCNC2CC2)ccc1Oc1ccc(SC)cc1
5. CNCc1cc(C#CCCN2CCOCC2)ccc1Oc1ccc(Cl)c(C(F)(F)F)c1
6. CNCc1cc(C#CCCN2CCC(F)CC2)ccc1Oc1ccc(SC)cc1

1: 28; 2: 150; 3: 270; 4: 27; 5: 110; 6: 10

* * *

biological target: Histamine H3 receptor (Homo sapiens)
Sequence (Q9Y5N1 whole entry): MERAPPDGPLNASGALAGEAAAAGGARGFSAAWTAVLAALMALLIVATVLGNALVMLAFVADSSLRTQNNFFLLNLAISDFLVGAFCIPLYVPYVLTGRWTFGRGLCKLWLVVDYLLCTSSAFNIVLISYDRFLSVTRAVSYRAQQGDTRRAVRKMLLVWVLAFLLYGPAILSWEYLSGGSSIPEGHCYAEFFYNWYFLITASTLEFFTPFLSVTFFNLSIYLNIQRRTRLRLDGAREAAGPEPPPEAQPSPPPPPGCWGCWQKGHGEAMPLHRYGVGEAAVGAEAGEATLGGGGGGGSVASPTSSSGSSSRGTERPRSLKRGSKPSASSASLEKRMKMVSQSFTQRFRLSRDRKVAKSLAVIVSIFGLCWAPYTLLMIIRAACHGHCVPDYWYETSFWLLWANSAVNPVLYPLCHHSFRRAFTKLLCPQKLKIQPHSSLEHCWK
quantity-name: Ki (nM)
One number for each entry, in nM.

Recorded Ki for CCN(CC)CCCOc1cc2c(cn1)C(c1ccc(Cl)c(Cl)c1)CN(C)C2 (stereo unspecified) , please? 7

* * *

test: Plasma concentration in rat at 10 mg/kg, po after 3 hrs; type: ADME, organism-based; set-up: dose 10 mg/kg, route oral
quantity-name: concentration at 3 h (µM)
Numbers only, in µM.

• CNCc1cc(C#CCCN2CCSCC2)ccc1Oc1ccc(SC)cc1 = 0.36
• CNCc1cc(C#CCCN2CCOCC2)ccc1Oc1cccc(Cl)c1 = 0.23
• CNCc1cc(C#CCCN2CCOCC2)ccc1Oc1ccc(Cl)cc1 = 0.04
• CNCc1cc(C#CCCN2CCOCC2)ccc1Oc1ccc(Cl)c(C(F)(F)F)c1 = 0.12
• CNCc1cc(C#CCCN2CCC(F)CC2)ccc1Oc1ccc(SC)cc1 = 0.008

In the following, a different compound is considered.
Fill blank: measured concentration at 3 h of the compound CNCc1cc(C#CCCN(C)C2CC2)ccc1Oc1ccc(SC)cc1 is ____. 0.024

* * *

assay: Plasma concentration in rat at 10 mg/kg, po after 3 hrs; format: ADME, organism-based; parameters: dose 10 mg/kg, route oral
quantity-name: concentration at 3 h (µM)
Numbers only, in µM.

Solved entries:
* CNCc1cc(C#CCCN2CCOCC2)ccc1Oc1cccc(F)c1 | 0.091
* CNCc1cc(C#CCCN2CCOCC2)ccc1Oc1ccc(F)cc1Cl | 0.018
* CNCc1cc(C#CCCNC2CC2)ccc1Oc1ccc(SC)cc1 | 0.032

Query molecule follows.
Fill in: concentration at 3 h of CNCc1cc(C#CCCN2CCOCC2)ccc1Oc1ccc(C(F)(F)F)cc1 is ___ 0.31
